Data credit: patent US20200055937A1

- target_of_assay: T1, CTLA4-Fc (UniProt P16410 36-161, limits assumed)
- T1 sequence (looked up): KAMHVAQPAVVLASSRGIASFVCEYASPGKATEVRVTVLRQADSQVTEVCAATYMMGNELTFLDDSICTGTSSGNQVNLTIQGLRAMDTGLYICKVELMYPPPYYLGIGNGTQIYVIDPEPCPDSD
- test_summary: cell-based or functional assay
experimental_endpoint: IC50 (nM), IL-2 secreted by Jurkat cells co-cultured with CHO/CD80 cells, Experiment 1
Write it as a number; the unit nM goes unstated.

Reported IC50 (nM), IL-2 secreted by Jurkat cells co-cultured with CHO/CD80 cells, Experiment 1, binder MAb A5 (32G4C12) (antibody, V domains shown, also called murine antibody A5) VH: QVQLQQSGPELVRPGASVKLSCKASGYTFTTYDINWVKQRPGQGLEWIGWIYPRDGSIIFNEKFKGKATLTVDTTSSTAYMELHSLTSEDSAVYFCARRGLLGPLDYWGQGTPLTVSS VL: DIVMTQSHKFMSTSVGDRVSITCKASQDVATTVAWYQQKPGQSPKLVIYWASTRHTGVPDRFTGSGSGTDFTLTISNVQSEDLADYFCQQYSSYPTFGVGTKLELK : ____
27.3

Now try MAb A1 (16A9E9) (antibody, V domains shown, also called murine antibody A1) VH: DVQLQESGPGLVKPSQSLSLTCSVTGDSITSGYYWNWIRQFPGNKLEWMGYISYDGINNYYPSLENRISITRDTSRNQFFLKLNSVTTEDTATYYCAREVVTPGVEVPAWYFDVWGTGTTVTVSS VL: DIVLTQSPTSLTVSLGQRAIISCKASQSVSFAGTGLMHWYQQKPGQQPKLLIYRASNLEAGVPTRFSGSGSRTDFTLNIHPVEEDDAATYYCQQSREYPWTFGGGTTLEIN .
19.3

Now try MAb A3 (32G12D2) (antibody, V domains shown, also called murine antibody A3) VH: QVQLQQPGAELVRPGSSVKLSCKASGYTFTSYWMHWVKQRPIQGLEWIGNIDPSDSETHYNQNFKDKATLTVDKSSSTAYLQLSSLTSEDSAVYYCARRYTSSSFDYWGQGTTLTVSS VL: DIQMTQTTSSLSASLGDRVTVSCRASQDIRNYLNWYQQKPDGTVKLLIYFTSKLHSGVPSRFSGSGSGTDYFLAISNLEQEDIATYFCQQGNTLPYTFGGGTKLEIK .
22.7

Now try MAb A4 (13F10D7) (antibody, V domains shown, also called Murine MAb A4; murine antibody A4) VH: EVQLRQSGPELVKPGTSVKISCKASGYKFTDHFINWVKQNHGKSLEWIGDINPNNGGTNSNQKFEGKATLTVDKSSSTAYMELRSLTSEDSAVYYCARLRREYFYAMDYWGQGTSVTVSS VL: DIVMTQAAFSNPVTLGTSASISCRSSKSLLHSNGITYLYWYLQKPGQSPQLLIYQMSNLASGVPDRFSSSGSGTDFTLRISRVEAEDVGVYYCAQNLELPLTFGAGTKLELK .
11
